Listing of entries alongside the reported GI50.
# Test system: IGROV-1
# Assay: NCI tumour cell line growth inhibition, 48 h
Active and inactive are the calls of the source. Rule as the data show it: active = GI50 up to about 1.1 µM and inactive = higher.

Problem: Name the recorded GI50 for CCCCCCCCCCCCC/C=C/[C@@H](O)[C@H](COC1OC(CO)C(OC2OC(CO)C(O)C(OC3(C(=O)O)CC(O)C(NC(C)=O)C(C(O)C(O)CO)O3)C2O)C(O)C1O)N=[N+]=[N-] (stereo partly drawn) .
Result: 32.9 µM (inactive)

Problem: Name the recorded GI50 for NC(=O)NO [HYDROXYUREA] .
Result: 1110 µM (inactive)

Problem: Name the recorded GI50 for N/C(=N\Nc1ccc(S(N)(=O)=O)cc1)c1cnccn1 .
Result: > 100 µM (inactive)

Problem: Name the recorded GI50 for CSC(=S)NNC(=O)c1ccncc1 .
Result: 14.6 µM (inactive)

Others:
Problem: Name the recorded GI50 for CCCCc1ccc(Nc2nc3ncnc-3c[nH]2)cc1 .
Result: 17.3 µM (inactive)

Problem: Name the recorded GI50 for C/N=C1\OC2=C3C(c4ccccc4)(O/C(=N/C)N(C)C3(c3ccccc3)OC2=O)N1C (stereo not drawn) .
Result: > 100 µM (inactive)
